Attribution: patent US11046714B2

A short record of Ki observed with human A2A receptor (Homo sapiens (Human), UniProt P29274) follows.
Sequence (P29274 whole entry): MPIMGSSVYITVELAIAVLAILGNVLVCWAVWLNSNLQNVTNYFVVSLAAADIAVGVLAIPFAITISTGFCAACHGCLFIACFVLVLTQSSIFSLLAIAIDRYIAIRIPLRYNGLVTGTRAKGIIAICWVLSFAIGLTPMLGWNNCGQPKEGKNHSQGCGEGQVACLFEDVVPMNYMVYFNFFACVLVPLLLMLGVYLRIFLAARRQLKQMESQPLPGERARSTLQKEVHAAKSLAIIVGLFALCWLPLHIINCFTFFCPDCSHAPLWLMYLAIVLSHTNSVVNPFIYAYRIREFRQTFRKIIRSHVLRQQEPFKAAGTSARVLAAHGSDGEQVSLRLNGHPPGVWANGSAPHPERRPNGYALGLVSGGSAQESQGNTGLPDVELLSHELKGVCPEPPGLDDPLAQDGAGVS
State the answer as a number, implicitly in nM.

Answered cases to consult:
{"columns": ["MOLECULE", "MEASURED RESULT"],
 "data": [
  ["Nc1nc2c3c(ccc2c2nc(CCN4CC5CC4C(F)(F)C5)nn12)OC(F)(F)O3 (single isomer, unassigned) [Example 66]", 3],
  ["C[C@H](Cc1nc2c3ccc4c(c3nc(N)n2n1)OC(F)(F)O4)N1CCc2cccnc21", 4.2]
]}

# get_value(readout= Ki, system= human A2A receptor (Homo sapiens (Human), UniProt P29274)) for C[C@@H]1CC(F)(F)CN1CCc1nc2c3ccc4c(c3nc(N)n2n1)OC(F)(F)O4 1.1

# get_value(readout= Ki, system= human A2A receptor (Homo sapiens (Human), UniProt P29274)) for Nc1nc2c3c(ccc2c2nc(CCN4CCN(C5CCCC5)C(=O)C4)nn12)OC(F)(F)O3 1.6

###

A short record of Ki observed with human A2A receptor (Homo sapiens (Human)) follows.
# output: number + unit

{"columns": ["SMILES NOTATION", "Ki"],
 "data": [
  ["Nc1nc2c3c(ccc2c2nc(CCN4CC(F)(F)C4)nn12)OC(F)(F)O3", "3 nM"],
  ["C[C@H](Cc1nc2c3ccc4c(c3nc(N)n2n1)OC(F)(F)O4)N1CCc2ccncc2C1", "3.9 nM"],
  ["Nc1nc2c3c(ccc2c2nc(CCN4Cc5ccc(C(F)(F)F)cc5C4)nn12)OC(F)(F)O3", "3.1 nM"]
]}

Alright, here's another molecule for you.
# get_value(readout= Ki, system= human A2A receptor (Homo sapiens (Human))) for CC(F)(F)CN1CC(Cc2nc3c4ccc5c(c4nc(N)n3n2)OC(F)(F)O5)C1 5.5 nM

###

A short record of Ki observed with human A2A receptor (Homo sapiens (Human), UniProt P29274) follows.
State the answer as a number, implicitly in nM.

Answered cases to consult:
{"columns": ["SMILES NOTATION", "TARGET ENTITY", "MEASURE UNIT", "MEASURED RESULT"],
 "data": [
  ["Nc1nc2c3c(ccc2c2nc(CCN4C[C@H](F)[C@@H](F)C4)nn12)OC(F)(F)O3", "human A2A receptor (Homo sapiens (Human), UniProt P29274)", "nM", 1.6],
  ["Cc1nc2c(s1)CN([C@H](C)Cc1nc3c4ccc5c(c4nc(N)n3n1)OC(F)(F)O5)CC2", "human A2A receptor (Homo sapiens (Human), UniProt P29274)", "nM", 2.6],
  ["Nc1nc2c3c(ccc2c2nc(CCN4CCN(c5cccc(F)c5)C(=O)C4)nn12)OC(F)(F)O3", "human A2A receptor (Homo sapiens (Human), UniProt P29274)", "nM", 1.1]
]}

Alright, here's another compound for you.
# get_value(readout= Ki, system= human A2A receptor (Homo sapiens (Human), UniProt P29274)) for Nc1nc2c3c(ccc2c2nc(CC(CO)CO)nn12)OC(F)(F)O3 2.7
